Values from PubChem BioAssay AID1347165

# Target Or System: Lysine-specific demethylase 5B (Homo sapiens) (UniProt Q9UGL1)
# Sequence (Q9UGL1 whole entry, looked up): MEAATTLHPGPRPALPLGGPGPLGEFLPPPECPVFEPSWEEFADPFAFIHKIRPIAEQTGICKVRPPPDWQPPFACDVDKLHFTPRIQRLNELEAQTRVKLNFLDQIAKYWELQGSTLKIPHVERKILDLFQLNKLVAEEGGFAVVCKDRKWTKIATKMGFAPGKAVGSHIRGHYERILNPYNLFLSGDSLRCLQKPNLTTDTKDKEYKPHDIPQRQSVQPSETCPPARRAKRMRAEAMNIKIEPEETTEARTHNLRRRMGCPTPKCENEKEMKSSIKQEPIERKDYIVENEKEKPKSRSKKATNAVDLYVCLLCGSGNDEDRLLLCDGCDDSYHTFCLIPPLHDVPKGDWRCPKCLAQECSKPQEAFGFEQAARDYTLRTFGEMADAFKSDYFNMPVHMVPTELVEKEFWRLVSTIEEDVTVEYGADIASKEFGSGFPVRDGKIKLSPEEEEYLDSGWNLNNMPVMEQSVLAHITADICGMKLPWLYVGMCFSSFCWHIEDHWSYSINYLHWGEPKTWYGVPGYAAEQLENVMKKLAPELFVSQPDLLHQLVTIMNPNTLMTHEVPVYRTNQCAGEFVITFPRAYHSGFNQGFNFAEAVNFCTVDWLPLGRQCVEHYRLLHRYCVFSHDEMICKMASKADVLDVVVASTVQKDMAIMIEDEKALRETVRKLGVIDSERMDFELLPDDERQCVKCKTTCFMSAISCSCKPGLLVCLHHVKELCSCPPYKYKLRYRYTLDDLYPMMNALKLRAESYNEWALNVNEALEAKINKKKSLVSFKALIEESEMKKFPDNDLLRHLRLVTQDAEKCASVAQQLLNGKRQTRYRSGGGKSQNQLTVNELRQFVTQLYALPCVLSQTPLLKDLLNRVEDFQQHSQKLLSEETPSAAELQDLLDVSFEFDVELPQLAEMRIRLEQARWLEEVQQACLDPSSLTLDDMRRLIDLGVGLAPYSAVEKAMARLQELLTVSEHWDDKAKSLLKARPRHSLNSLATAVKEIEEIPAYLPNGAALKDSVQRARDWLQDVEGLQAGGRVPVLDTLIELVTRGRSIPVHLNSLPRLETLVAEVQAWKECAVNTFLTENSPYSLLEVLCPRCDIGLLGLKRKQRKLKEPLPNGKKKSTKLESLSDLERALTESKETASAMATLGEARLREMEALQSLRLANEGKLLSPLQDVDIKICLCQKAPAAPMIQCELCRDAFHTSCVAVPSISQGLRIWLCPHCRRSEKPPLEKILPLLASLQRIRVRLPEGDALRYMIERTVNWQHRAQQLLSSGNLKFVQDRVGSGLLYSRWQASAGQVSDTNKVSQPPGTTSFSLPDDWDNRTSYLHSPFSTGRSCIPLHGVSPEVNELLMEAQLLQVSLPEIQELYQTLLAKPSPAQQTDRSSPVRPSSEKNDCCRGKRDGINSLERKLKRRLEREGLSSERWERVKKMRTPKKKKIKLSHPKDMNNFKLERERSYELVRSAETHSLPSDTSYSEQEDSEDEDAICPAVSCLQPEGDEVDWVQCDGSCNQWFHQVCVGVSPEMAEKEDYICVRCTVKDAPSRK
# Procedure Summary: Primary screen for KDM5B Histone Demethylases FDH-coupled qHTS; further: nearly all actives have a fitted effect of over 70% in size
# Measurement Context: FDH-coupled NADH fluorescence (FDH is formaldehyde dehydrogenase); series mostly up to 57.7 µM
In all, about 220,000 compounds went through this assay and about 5,700 (2.6%) were called active. Inconclusive results (about 18%) are left out. The call rests on the fitted dose curve; in most records, active means well fitted inhibition curve with a large enough effect; inconclusive means small, poorly fitted or top-dose-only effect; inactive means no such curve, though single readings can be large or run the other way. The full list was thinned out, with actives kept by preference.
Outcomes: Yes for active, No for inactive

INSERT INTO assay_data (compound, group_label) VALUES
  ('CCCn1nc(C(=O)NCc2cccc(OC)c2)c2ccccc2c1=O', 'No'),
  ('COC(=O)c1cccc(NC(=O)N2CCc3c(nc4cc(-c5ccccc5)[nH]n4c3=O)C2)c1', 'Yes'),
  ('O=C(NCCCNC(=O)c1nc2ccccc2c(=O)[nH]1)c1cccnc1', 'No'),
  ('Fc1ccc(-c2ccnc3nc(C4CCC4)nn23)cc1', 'Yes'),
  ('O=C(Nc1ccccc1)N1CCc2nc(-c3ccccc3)nc(-c3ccc(Cl)cc3)c2C1', 'No'),
  ('O=C1CO[C@H](c2ccc(NS(=O)(=O)c3cccc(F)c3)cc2)[C@@H](CO)N1Cc1ccncc1', 'No'),
  ('Cc1cc(N)n(CC(=O)N[C@@H]2COCC[C@@H]2OCc2c(C)noc2C)n1', 'No'),
  ('COc1ccc(C(=O)C(C)OC(=O)c2nn(C)c(=O)c3ccccc23)cc1 (stereo unspecified)', 'No'),
  ('COc1ccc(N2CC(c3noc(-c4cc(OC)c(OC)c(OC)c4)n3)CC2=O)cc1 (stereo unspecified)', 'No'),
  ('O=C(COc1ccc(Cl)cc1)Nc1ccc2oc(-c3ccc(F)cc3)nc2c1', 'No'),
  ('Cc1noc(C)c1CCCNC(=O)c1ccc(N(C)C2CCOC2)nc1 (stereo unspecified)', 'No'),
  ('Cc1ccccc1NC(=O)C1CC(=O)Nc2nc(SCc3ccccc3)nn21 (stereo unspecified)', 'No'),
  ('O=C(Nc1cccn2nc(C3CCC3)nc12)c1cccc(F)c1', 'No'),
  ('COc1ccccc1CC(=O)N1CCc2c(nc3cc(-c4ccccc4Cl)[nH]n3c2=O)C1', 'No'),
  ('CCOc1ccc(CN(C)CC(O)COc2ccc(C)cc2C)cc1OC (stereo unspecified)', 'No'),
  ('COCCNC(=O)c1cnc2n[nH]c(-c3ccccc3OC)c2n1', 'No'),
  ('COc1ccc(-c2cc(N3CCCN(C(=O)c4ccc(OC)cc4C)CC3)n[nH]2)cc1', 'No'),
  ('COC[C@]1(O)CCN(C(=O)c2ccccc2C(F)(F)F)CC1(C)C', 'No'),
  ('COc1ccccc1C(=O)N1CCc2c(nc3cc(-c4ccccc4Cl)[nH]n3c2=O)C1', 'Yes'),
  ('CCCn1nc(C(=O)OCC(=O)N2CCc3ccccc32)c2ccccc2c1=O', 'No'),
  ('CCCC1(CCC)NC(=O)N(Cc2ncc(-c3ccccc3)o2)C1=O', 'No');
